Test system: Solenopsis invicta
Experiment: whole plant or invertebrate
Assay type: in vivo
Settings: Solenopsis invicta, 24 h, read-out: Solenopsis invicta Mortality (%) 100 ppm 24 h, 100 ppm; 24 h; water test tube poison-feeding
READOUT: mortality at 100 ppm

# lookup: mortality at 100 ppm of CC1(C)Nc2c([N+](=O)[O-])c(C#N)nn2-c2ccccc21 [Compound A21]
24%

Try the molecule CC1(C)Nc2c(Br)c(C(=O)N3CCCCC3)nn2-c2ccccc21 [Compound A7]
20%

Next record, please: COC(=O)/C=C/C1(CC#N)Nc2c([S+](C)[O-])c(C(C)=O)nn2-c2c(Cl)cc(C(F)(F)F)cc21 (stereo not shown) [Compound C60]
25%

Another molecule to check: CC1(C)Nc2c(Br)c(C#N)nn2-c2ccccc21 [Compound A2]
19%

Another molecule to check: C=CC1(CCl)Nc2cc(C#N)nn2-c2c(Cl)cc(C(F)(F)F)cc21 (stereo not shown) [Compound C1]
20%

Thanks! And N#Cc1nn2c(c1[S+]([O-])C(F)(F)F)NC(C(O)CO)c1cc(C(F)(F)F)cc(Cl)c1-2 (stereo not shown) [Compound C51] ?
19%

Follow-up entry: CC(=O)c1nn2c(c1[S+](C)[O-])NC(CO)(CC#N)c1cc(C(F)(F)F)cc(Cl)c1-2 (stereo not shown) [Compound C27]
27%

Request: N#Cc1cn2c(c1C#N)NC(C#N)(C#N)c1ccc([N+](=O)[O-])cc1-2 [Compound B6]
44%

Same for COC(=O)CC1(C(=O)OC)c2cc(C(F)(F)F)cc(Cl)c2-n2nc(C#N)c([S+]([O-])C(F)(F)F)c2N1C(C)=O (stereo not shown) [Compound C40]
28%

What do you have for C=CC1Nc2cc(C#N)nn2-c2c(Cl)cc(C(F)(F)F)cc21 (stereo not shown) [Compound C4] ?
20%

Another molecule to look at: CNC(=O)c1nn2c(c1Br)NC(C)(C)c1ccccc1-2 [Compound A6]
44%

Check C=CC1(CCl)Nc2c([S+]([O-])C(F)(F)F)c(C#N)nn2-c2c(Cl)cc(C(F)(F)F)cc21 (stereo not shown) [Compound C13] too.
32%

// same read-out, input: Nc1ccc2c(c1)-n1nc(C(F)(F)F)c(-c3ccc(F)cc3)c1NC2(C(F)(F)F)C(F)(F)F [Compound A12]
44%

Try this molecule next: CNC(=O)N1c2c(C#N)c(SC)nn2-c2ccccc2C1(F)C(F)(F)F (stereo not shown) [Compound A32]
26%

Moving on to the next molecule: COC(=O)/C=C/C1(CC#N)Nc2c([S+]([O-])C(F)(F)F)c(C#N)nn2-c2c(Cl)cc(C(F)(F)F)cc21 (stereo not shown) [Compound C58]
29%

Input N#Cc1cn2c(c1C#N)NC(C#N)(C#N)c1ccc(N)cc1-2 [Compound B7]
38%

###

Provide the recorded Spodoptera exigua Mortality (%) 500 ppm for the entries that follow.
Tested on: Spodoptera exigua
Test: whole plant or invertebrate
Type: in vivo
Conditions: 500 ppm; 2nd-instar larvae; leaf immersion feeding; 24 hours
Reply with just the number (in %).

Look at this molecule and give its reported Spodoptera exigua Mortality (%) 500 ppm. N#Cc1nn2c(c1[S+]([O-])C(F)(F)F)NC(Cl)(Cl)c1cc(C(F)(F)F)cnc1-2 (stereo not shown)
95

Same read-out for CC(=O)C1(CC(=O)C(F)(F)F)Nc2c([S+]([O-])C(F)(F)F)c(C#N)nn2-c2ncc(C(F)(F)F)cc21 (stereo not shown) ?
96

Subsequent entry: CC(=O)C1(CC(F)(F)F)Nc2c([S+]([O-])C(F)(F)F)c(C#N)nn2-c2ncc(C(F)(F)F)cc21 (stereo not shown)
96

Cool, now N#Cc1nn2c(c1[S+]([O-])C(F)(F)F)NC(C#N)(C#N)c1cc(C(F)(F)F)cnc1-2 (stereo not shown)
89

// query: CC(=O)CC1(C(=O)C(F)(F)F)Nc2c([S+]([O-])C(F)(F)F)c(C#N)nn2-c2ncc(C(F)(F)F)cc21 (stereo not shown)
100

Now try COC(=O)CC1(C(F)(F)F)Nc2c([S+]([O-])C(F)(F)F)c(C#N)nn2-c2ncc(C(F)(F)F)cc21 (stereo not shown) .
100

CCOC(=O)CC1(C(=O)OCC)Nc2c([S+]([O-])C(F)(F)F)c(C#N)nn2-c2ncc(C(F)(F)F)cc21 (stereo not shown) ?
100

###

System: Bombyx mori L.
Experiment: Toxicity test on 2nd-instar larvae of Bombyx mori L., leaf immersion feeding method
Format: in vivo
Details: 1000 ppm, 24 hours
READOUT: Toxicity determination Bombyx mori L. Mortality (%)
Give the quantity in %, number only.

Fill in the blank: the reported Toxicity determination Bombyx mori L. Mortality (%) of N#CCC1(C(=O)O)Nc2c([S+]([O-])C(F)(F)F)c(C#N)nn2-c2c(Cl)cc(C(F)(F)F)cc21 (stereo not shown) is ____.
0

Try C=CC1(CCl)Nc2c([S+]([O-])C(F)(F)F)c(C#N)nn2-c2c(Cl)cc(C(F)(F)F)cc21 (stereo not shown) next.
12

Now consider N#Cc1nn2c(c1[S+]([O-])C(F)(F)F)NC(CC(F)(F)F)(C(O)CO)c1cc(C(F)(F)F)cc(Cl)c1-2 (stereo not shown) .
6

Next record, please: CNC(=O)Nc1ccc2c(c1)-n1cc(C#N)c(C#N)c1NC2(C#N)C#N
5

Also CSc1nn2c(c1C(=O)N1CCN(C)CC1)NC(F)(C(F)(F)F)c1ccccc1-2 (stereo not shown) , if possible.
8

Repeat with CC1(C)Nc2cc(C#N)nn2-c2ccccc21
9

Same question, COC(=O)Nc1ccc2c(c1)-n1cc(C#N)c(C#N)c1NC2(C#N)C#N this time
7

Can you check N#Cc1nn2c(c1[S+]([O-])C(F)(F)F)NC(CC(=O)O)(C(=O)O)c1cc(C(F)(F)F)cc(Cl)c1-2 (stereo not shown) next?
2

What do you get for CNC(=O)N1c2c(C#N)c(SC)nn2-c2ccccc2C1(F)C(F)(F)F (stereo not shown) ?
10

CCc1nn2c(c1-c1cc(C)sc1C)NC(/C=C\C(=O)OC)(/C=C/C(=O)OC)c1cc(C(F)(F)F)cc(Cl)c1-2 (stereo not shown) , same question.
7

// next record C=CC1(CCl)Nc2c([S+](C)[O-])c(C#N)nn2-c2c(Cl)cc(C(F)(F)F)cc21 (stereo not shown)
6

What do you get for Nc1ccc2c(c1)-n1nc(C(F)(F)F)c(SC(F)(F)F)c1NC2(C(F)(F)F)C(F)(F)F ?
17

How about N#Cc1cnn2c1NC(N)(CN)c1ccc(Cl)cc1-2 (stereo not shown) ?
0

Now the same for CSc1nn2c(c1S(=O)(=O)c1ccccc1)NC(C)(C)c1nc(F)ncc1-2
10

// query: COc1ccc(-c2cn3c(c2C(C)=O)NC(C(N)=O)(C(N)=O)c2ccc([N+](=O)[O-])cc2-3)cc1
0

Now consider N#Cc1nn2c(c1[S+]([O-])C(F)(F)F)NC(C(O)CO)c1cc(C(F)(F)F)cc(Cl)c1-2 (stereo not shown) .
9

###

System: Solenopsis invicta
Test: whole plant or invertebrate
Type: in vivo
Conditions: 100 ppm; 24 h; water test tube poison-feeding
Outcome label depends on Solenopsis invicta Mortality (%) 24 h relative to 20%: at/above gives rule met, below gives rule not met.

Is it the case that O=C(CC1Nc2c([S+]([O-])C(F)(F)F)c(C(F)(F)F)nn2-c2c(Cl)cc(C(F)(F)F)cc21)C(F)(F)F (stereo not drawn) [d-103] has Solenopsis invicta Mortality (%) 24 h reaching or exceeding 20%?
rule met

For COC(=O)CC1(C#N)Nc2c([S+]([O-])C(F)(F)F)c(C#N)nn2-c2c(Cl)cc(C(F)(F)F)cc21 (stereo not drawn) [d-67] then?
rule met

Same lookup for N#CCC1(C(=O)C(F)(F)F)Nc2c([S+]([O-])C(F)(F)F)c(C#N)nn2-c2cncc(Cl)c21 (stereo not drawn) [b-30] , please.
rule met

Subsequent entry: N#Cc1nn2c(c1[S+]([O-])C(F)(F)F)NC(C#N)(CC(F)(F)F)c1cc(C(F)(F)F)cc(Cl)c1-2 (stereo not drawn) [d-65]
rule met

Request: CNC(=O)C1Nc2c([S+]([O-])C(F)(F)F)c(C(F)(F)F)nn2-c2cncc(Cl)c21 (stereo not drawn) [b-99]
rule met

Please give the result for CC=CC1Nc2c([S+]([O-])C(F)(F)F)c(C(F)(F)F)nn2-c2c(Cl)cc(C(F)(F)F)cc21 (stereo not drawn) [d-119] too.
rule met

Now consider COC(=O)C1(CBr)Nc2c([S+]([O-])C(F)(F)F)c(C#N)nn2-c2c(Cl)cc(C(F)(F)F)cc21 (stereo not drawn) [d-34] .
rule met

Next: COC(=O)CC1(C(=O)OC)Nc2c([S+]([O-])C(F)(F)F)c(C#N)nn2-c2cc(C(F)(F)F)c(Cl)cc21 (stereo not drawn) [e-19]
rule met

What do you have for N#Cc1nn2c(c1[S+]([O-])C(F)(F)F)NC(CC(F)(F)F)c1cc(C(F)(F)F)cc(Cl)c1-2 (stereo not drawn) [d-85] ?
rule met

Entry to check: CCOC(=O)CC1(C(=O)OCC)Nc2c([S+]([O-])C(F)(F)F)c(C#N)nn2-c2c(C(F)(F)F)ccc(Cl)c21 (stereo not drawn) [e-5]
rule met

// repeat for COC(=O)CC1(C(=O)OC)Nc2c([S+]([O-])C(F)(F)F)c(C(C)=O)nn2-c2c(Cl)cc(C(F)(F)F)cc21 (stereo not drawn) [d-8] and report
rule not met

Another: N#Cc1nn2c(c1[S+]([O-])C(F)(F)F)NC(CC(=O)C(F)(F)F)(C(=O)C(F)(F)F)c1c(Cl)cncc1-2 (stereo not drawn) [b-25]
rule met

Next molecule: CCOC(=O)CC1(C(=O)OC)Nc2c([S+]([O-])C(F)(F)F)c(C#N)nn2-c2c(C(F)(F)F)ccc(Cl)c21 (stereo not drawn) [e-2]
rule met

Then CNC(=O)CC1Nc2c(OC(F)(F)F)c(C#N)nn2-c2c(Cl)cc(C(F)(F)F)cc21 (stereo not drawn) [d-133] ?
rule met

Record: CC(=O)C1(C(=O)C(F)(F)F)Nc2c([S+]([O-])C(F)(F)F)c(C#N)nn2-c2cc(C(F)(F)F)cc(Cl)c21 (stereo not drawn) [c-39]
rule met

Also, [O-][S+](c1c(C(F)(F)F)nn2c1NC(Br)c1cc(C(F)(F)F)cc(Cl)c1-2)C(F)(F)F (stereo not drawn) [d-114] please.
rule met

COC(=O)CC1(C(=O)OC)Nc2c([S+](C)[O-])c(C#N)nn2-c2c(Cl)cc(C(F)(F)F)cc21 (stereo not drawn) [d-13] ?
rule met

Repeat for the following molecule: N#CCC1Nc2c(OC(F)(F)F)c(C#N)nn2-c2c(Cl)cc(C(F)(F)F)cc21 (stereo not drawn) [d-129]
rule met

Repeat for the following molecule: COC(=O)C1(CC(=O)OCC(F)F)Nc2c([S+]([O-])C(F)(F)F)c(C#N)nn2-c2cc(C(F)(F)F)cc(Cl)c21 (stereo not drawn) [c-20]
rule not met

Cool, now COC(=O)C1(CC(N)=O)Nc2c([S+]([O-])C(F)(F)F)c(C#N)nn2-c2c(Cl)cc(C(F)(F)F)cc21 (stereo not drawn) [d-20]
rule not met

Same for [O-][S+](c1c(C(F)(F)F)nn2c1NC(C(F)(F)F)c1cc(C(F)(F)F)cc(Cl)c1-2)C(F)(F)F (stereo not drawn) [d-107]
rule met

Next molecule: CC(C)C1Nc2c(OC(F)(F)F)c(C#N)nn2-c2cncc(Cl)c21 (stereo not drawn) [b-131]
rule not met

And the next one, N#Cc1nn2c(c1[S+]([O-])C(F)(F)F)NC(Cl)c1cc(C(F)(F)F)cc(Cl)c1-2 (stereo not drawn) [d-90] ?
rule not met
